The following variants are shown together with reported protein stability index values.
B1: EHMT1 (parent)
chain: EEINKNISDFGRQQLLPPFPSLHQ

# Variants of: B1
# Measurement notes: protein stability index of a GFP-peptide fusion (GPS, HEK-293T) (PSI 1-6); higher = more stable;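 further: lentivirally expressed fusions sorted by FACS into six bins by GFP to DsRed ratio, PSI derived from sequencing read proportions per bin multiplied by bin number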
# Experimental context: c terminus: a fixed tail appended

{"columns": ["Var", "protein stability index"],
 "data": [
  ["I3S", 3.13],
  ["S8A", 3.22],
  ["L16C", 3.26],
  ["N4L", 2.69],
  ["S21C", 3.06]
]}
